test: Kinetic aqueous solubility by CLND; assay type: physicochemical; conditions: aqueous medium (not further specified), kinetic from dmso stock, high-throughput CLND
METRIC_NAME: solubility (µM)

COc1ccc(N2C(=O)c3[nH]nc(CC(C)C)c3C2C2CCCC2)cc1 (centres unmarked) [Compound 53] = 119
COc1ccc(N2C(=O)c3[nH]nc(CC(C)C)c3C2c2ccc(Cl)cc2)cc1 (centres unmarked) [Compound 47] = 22
COc1ccc(N2C(=O)c3[nH]nc(CC(C)C)c3C2c2ccccc2Br)cc1 (centres unmarked) [Compound 56] = 12

[A] COc1ccc(N2C(=O)c3[nH]nc(CC(C)C)c3C2c2ccccc2F)cc1 (centres unmarked) [Compound 54]
[B] CC(C)Cc1n[nH]c2c1C(c1ccc(F)cc1)N(c1ccccn1)C2=O (centres unmarked) [Compound 33]
[C] COc1ccc(N2C(=O)c3[nH]nc(CC(C)C)c3C2c2ccc(C(F)(F)F)cc2)cc1 (centres unmarked) [Compound 49]
[D] COc1ccc(N2C(=O)c3[nH]nc(CC(C)C)c3C2c2cncc(OC)c2)cc1 (centres unmarked) [Compound S11]
Provide the items ranked by increasing solubility. Answer by listing the labels in the requested order. C, A, B, D
(C: 12 µM, A: 75 µM, B: 219 µM, D: 386 µM)

[A] COc1ccc(N2C(=O)c3[nH]nc(CC(C)C)c3C2c2cccc(Cl)c2)cc1 (centres unmarked) [Compound 59]
[B] CC(C)Cc1n[nH]c2c1C(c1ccc(F)cc1)N(c1cccnc1)C2=O (centres unmarked) [Compound 32]
Lower value of solubility belongs to which: A or B ? Your choice should be expressed through its label. A

====

assay: Kinetic aqueous solubility by CLND; assay type: physicochemical; settings: kinetic from dmso stock, high-throughput CLND
METRIC_NAME: solubility (µM)

Some entries whose results are on file:
COc1ccc(N2C(=O)c3[nH]nc(-c4ccc5c(c4)CCC5)c3C2c2ccc(F)cc2)cc1 (centres unmarked) = 17
C=C(C)CCc1n[nH]c2c1C(c1ccc(F)cc1)N(c1ccc(OC)cc1)C2=O (centres unmarked) = 52
COc1ccc(N2C(=O)c3[nH]nc(CC(C)(C)C)c3C2c2ccc(F)cc2)cc1 (centres unmarked) = 36
C=CCCc1n[nH]c2c1C(c1ccc(F)cc1)N(c1ccc(OC)cc1)C2=O (centres unmarked) = 135
C=C(C)CCCc1n[nH]c2c1C(c1ccc(F)cc1)N(c1ccc(OC)cc1)C2=O (centres unmarked) = 17

[I] COc1ccc(N2C(=O)c3[nH]nc(CCC(C)C)c3C2c2ccc(F)cc2)cc1 (centres unmarked)
[II] COc1ccc(N2C(=O)c3[nH]nc(CCc4ccccc4)c3C2c2ccc(F)cc2)cc1 (centres unmarked)
Compare the recorded solubility of I and II ; state which is larger. Your choice should be expressed through its label. I

====

tested on: L. donovani intracellular amastigotes in B10R cells; assay: UCSD L. donovani infection assay (Assay Conditions D); type: cell-based; conditions: B10R cells
METRIC_NAME: L. donovani amastigotes EC75 (μM, B10R cells)

Some entries whose results are on file:
COc1cc(C2c3c(CC(C)C)n[nH]c3C(=O)N2c2cc(C)nn2C)cc(OC)c1Br (centres unmarked) = >10 µM
COc1ccc(N2C(=O)c3[nH]nc(CC(C)C)c3C2c2ccccc2C)cn1 (centres unmarked) = >10 µM
CC(C)Cc1n[nH]c2c1C(c1ccccc1Cl)N(c1ccn(C)n1)C2=O (centres unmarked) = >10 µM
CC(C)Cc1n[nH]c2c1C(c1ccc(Cl)cc1F)N(c1cnn(C(C)C)c1)C2=O (centres unmarked) = >10 µM
Cc1ccccc1C1c2c(CC(C)C)n[nH]c2C(=O)N1c1ccc(F)nc1 (centres unmarked) = 6.3 µM
Cc1ccccc1C1c2c(CC(C)C)n[nH]c2C(=O)N1c1cncc(F)c1 (centres unmarked) = 2.6 µM

Please give the measured L. donovani amastigotes EC75 (μM, B10R cells) for this compound: COc1ncc(N2C(=O)c3[nH]nc(CC(C)C)c3C2c2ccc(Cl)cc2F)cc1F (centres unmarked) >10 µM

And CC(C)Cc1n[nH]c2c1C(c1ccc(F)cc1)N(c1ccc(N3CCCC3=O)cc1)C2=O (centres unmarked) ? 1.0 µM
